Data provenance: patent US20220267469A1

- systemName: T1, Human BSSL (bile salt-stimulated lipase), native (human, UniProt P19835 21-753)
- T1 sequence: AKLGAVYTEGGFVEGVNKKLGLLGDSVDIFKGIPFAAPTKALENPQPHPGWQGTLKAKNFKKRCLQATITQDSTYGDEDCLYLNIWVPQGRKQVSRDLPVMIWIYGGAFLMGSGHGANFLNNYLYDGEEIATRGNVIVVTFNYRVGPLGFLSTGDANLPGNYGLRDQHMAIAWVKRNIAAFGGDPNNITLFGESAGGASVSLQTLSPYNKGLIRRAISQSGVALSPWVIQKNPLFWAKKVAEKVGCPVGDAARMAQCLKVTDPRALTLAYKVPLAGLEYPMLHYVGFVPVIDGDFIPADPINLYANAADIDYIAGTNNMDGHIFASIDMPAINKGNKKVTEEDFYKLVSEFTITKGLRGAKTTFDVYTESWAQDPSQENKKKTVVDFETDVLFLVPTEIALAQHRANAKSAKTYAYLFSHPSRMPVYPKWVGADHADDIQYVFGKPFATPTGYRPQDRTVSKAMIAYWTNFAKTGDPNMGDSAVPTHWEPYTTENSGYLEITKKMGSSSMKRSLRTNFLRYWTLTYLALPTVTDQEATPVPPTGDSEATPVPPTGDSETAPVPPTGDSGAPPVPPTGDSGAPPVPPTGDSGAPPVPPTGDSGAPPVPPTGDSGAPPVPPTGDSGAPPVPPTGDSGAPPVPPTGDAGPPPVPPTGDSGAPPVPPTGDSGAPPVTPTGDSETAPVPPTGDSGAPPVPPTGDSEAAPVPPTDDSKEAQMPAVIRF
- testProtocol: cell-based or functional assay
Could you please report measured BSSL hydrolysis of triglycerides, relative value (no antibody = 100%); 1.5 ug antibody for the items listed next?
Report only the number, with the unit % understood.

[Q] Dear colleague, I am looking for the recorded BSSL hydrolysis of triglycerides, relative value (no antibody = 100%); 1.5 ug antibody of the following binder: S-SL048-46 hIgG4 S228P (antibody, V domains shown, also called clone 46; mAb46) VH: QVQLVQSGAEVKKPGASVKVSCKASGYTFTSYNMHWVRQAPGQGLEWMGVINPGDGATSYNQKFQGRVTMTRDTSTSTVYMELSSLRSEDTAVYYCARDYYGSSPLGYWGQGTLVTVSS VL: DIQMTQSPSSLSASVGDRVTITCRASSSISYLNWYQQKPGKAPKLLIYAASSLASGVPSRFSGSGSGTDFTLTISSLQPEDFATYYCHQRSSSPTFGQGTKLEIKR
[A] 113

[Q] Report BSSL hydrolysis of triglycerides, relative value (no antibody = 100%); 1.5 ug antibody for S-SL048-106 hIgG4 S228P (antibody, V domains shown, also called mAb106) VH: QVQLVQSGAEVKKPGASVKVSCKASGYTFTSYNMHWVRQAPGQGLEWIGVIYPGDGSTSYNQKFQGRVTMTRDTSTSTVYMELSSLRSEDTAVYYCARDYYGSSPLGYWGQGTLVTVSS VL: DIQMTQSPSSLSASVGDRVTITCSASSSISYMNWYQQKPGKAPKLLIYATSKLPSGVPSRFSGSGSGTDFTLTISSLQPEDFATYYCHQRSSTPTFGQGTKLEIKR please.
[A] 120
